measurement_target: Thymidylate synthase (Homo sapiens)
Sequence (P04818 whole entry): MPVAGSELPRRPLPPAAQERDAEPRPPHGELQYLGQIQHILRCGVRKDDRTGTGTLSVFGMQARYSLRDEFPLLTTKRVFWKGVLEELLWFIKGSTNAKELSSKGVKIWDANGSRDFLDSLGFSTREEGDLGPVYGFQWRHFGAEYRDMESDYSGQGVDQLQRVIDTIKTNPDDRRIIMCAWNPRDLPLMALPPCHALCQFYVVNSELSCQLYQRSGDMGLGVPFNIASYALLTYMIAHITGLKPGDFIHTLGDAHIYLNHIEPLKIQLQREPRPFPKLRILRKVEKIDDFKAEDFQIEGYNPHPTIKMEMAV
pKi: −log10 of the molar value.
quantity_name: pKi

• O=C1C=CC(=O)C(c2cn([C@H]3C[C@H](O)[C@@H](COP(=O)(O)O)O3)c(=O)[nH]c2=O)=C1 = 5.70
